assayed_target: HIV Env of isolate A07412M1.vrc12 (clade D) (HIV)
protocol_description: cell-based or functional assay
quantity_measured: IC50 (µg/ml) with constrains (µg/mL)
Number only, in µg/mL; omit the unit.

Query :: For the binder ePGDM9 (antibody, V domains shown) VH: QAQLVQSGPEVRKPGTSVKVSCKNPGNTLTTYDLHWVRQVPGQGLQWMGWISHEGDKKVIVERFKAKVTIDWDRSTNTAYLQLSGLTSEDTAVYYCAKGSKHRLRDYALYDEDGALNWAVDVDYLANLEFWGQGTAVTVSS VL: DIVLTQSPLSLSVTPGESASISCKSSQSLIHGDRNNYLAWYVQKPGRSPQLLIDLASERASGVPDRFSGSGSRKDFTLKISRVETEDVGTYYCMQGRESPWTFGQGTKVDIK , give its reported IC50 (µg/ml) with constrains.
Result :: 0.026

Query :: For the binder ePGDM13 (antibody, V domains shown) VH: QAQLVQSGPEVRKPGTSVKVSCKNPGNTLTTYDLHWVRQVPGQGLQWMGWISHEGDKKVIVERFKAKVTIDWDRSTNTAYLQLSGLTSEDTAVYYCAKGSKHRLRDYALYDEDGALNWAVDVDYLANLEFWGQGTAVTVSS VL: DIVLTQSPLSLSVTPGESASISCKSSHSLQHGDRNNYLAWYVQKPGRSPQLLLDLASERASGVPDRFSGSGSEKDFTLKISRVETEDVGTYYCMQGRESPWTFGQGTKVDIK , give its reported IC50 (µg/ml) with constrains.
Result :: 0.029

Query :: For the binder PGDM1400 (antibody, V domains shown) VH: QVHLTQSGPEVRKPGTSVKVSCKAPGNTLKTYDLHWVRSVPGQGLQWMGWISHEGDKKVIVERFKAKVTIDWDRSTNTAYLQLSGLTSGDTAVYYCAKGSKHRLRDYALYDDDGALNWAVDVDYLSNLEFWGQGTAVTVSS VL: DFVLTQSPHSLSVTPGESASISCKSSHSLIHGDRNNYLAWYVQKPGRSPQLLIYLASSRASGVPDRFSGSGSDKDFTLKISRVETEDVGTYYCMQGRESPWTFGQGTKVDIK , give its reported IC50 (µg/ml) with constrains.
Result :: 0.029

Query :: For the binder ePGDM5 (antibody, V domains shown) VH: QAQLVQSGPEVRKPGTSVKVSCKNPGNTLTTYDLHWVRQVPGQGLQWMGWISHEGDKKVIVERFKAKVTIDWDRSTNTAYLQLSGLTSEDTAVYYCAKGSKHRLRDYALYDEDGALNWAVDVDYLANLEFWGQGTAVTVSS VL: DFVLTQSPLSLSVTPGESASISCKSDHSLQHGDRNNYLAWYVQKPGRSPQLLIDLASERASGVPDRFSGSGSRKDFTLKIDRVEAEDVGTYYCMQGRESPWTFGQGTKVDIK , give its reported IC50 (µg/ml) with constrains.
Result :: 0.009
